- SYSTEM TESTED: Human HDAC1 (Homo sapiens, UniProt Q13547)
- Construct: purchased BPS Bioscience 50051
- Sequence (Q13547 whole entry): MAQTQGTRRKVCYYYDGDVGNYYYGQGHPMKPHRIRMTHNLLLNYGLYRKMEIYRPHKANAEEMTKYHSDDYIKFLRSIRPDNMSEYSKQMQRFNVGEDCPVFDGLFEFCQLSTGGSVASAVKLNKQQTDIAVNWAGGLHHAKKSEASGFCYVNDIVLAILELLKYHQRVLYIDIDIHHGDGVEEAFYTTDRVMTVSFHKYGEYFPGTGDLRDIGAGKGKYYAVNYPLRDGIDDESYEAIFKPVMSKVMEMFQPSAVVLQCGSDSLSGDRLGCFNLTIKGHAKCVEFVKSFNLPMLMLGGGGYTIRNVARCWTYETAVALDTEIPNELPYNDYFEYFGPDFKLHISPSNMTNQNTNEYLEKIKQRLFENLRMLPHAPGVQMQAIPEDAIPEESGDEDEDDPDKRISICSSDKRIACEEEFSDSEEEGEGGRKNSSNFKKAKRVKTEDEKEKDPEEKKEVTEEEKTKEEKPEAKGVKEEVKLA
- PROCEDURE SUMMARY: Fluorometric HDAC activity assay (Fluor de Lys Green), human HDAC1
- Type: biochemical
- TEST CONDITIONS: 25 °C, 25 µM Fluor de Lys Green; read-out: HDACs IC50, HDAC1
- Experimental: Optimized fluorometric enzymatic assays were used as previously reported (5, 6). Briefly, the time-course of the reaction was monitored at 25 °C in HDAC assay buffer [25 mM Tris/HCl, pH 8.0, 130 mM NaCl, 0.05% Tween-20, 10% Glycerol, 1 mg/mL bovine serum albumin (BSA), 0.5 mM tris(2-carboxyethyl)phosphine (TCEP) and 1% DMSO]. […] For fast binding inhibitors, the initial velocity (vo) was calculated as (∆F/min) from the slope of the straight line fitting the data points. […]
pIC50: −log10 of the molar value.
Quick list: pIC50 per entry.
REPORTED ENDPOINT: pIC50

{"TEST SMILES": "CC(C)(C)c1cn(Cc2ccc(C(=O)NNC(=O)C(F)F)s2)nn1", "RESULT VALUE": "< 4.00"}
{"TEST SMILES": "CC(C)(C)c1cn(Cc2ccc(C(=O)NN)s2)nn1", "RESULT VALUE": "< 4.00"}

----------
- SYSTEM TESTED: human HDAC6 (Homo sapiens, UniProt Q9UBN7)
- Construct: purchased BPS Bioscience 50006
- Sequence (Q9UBN7 whole entry): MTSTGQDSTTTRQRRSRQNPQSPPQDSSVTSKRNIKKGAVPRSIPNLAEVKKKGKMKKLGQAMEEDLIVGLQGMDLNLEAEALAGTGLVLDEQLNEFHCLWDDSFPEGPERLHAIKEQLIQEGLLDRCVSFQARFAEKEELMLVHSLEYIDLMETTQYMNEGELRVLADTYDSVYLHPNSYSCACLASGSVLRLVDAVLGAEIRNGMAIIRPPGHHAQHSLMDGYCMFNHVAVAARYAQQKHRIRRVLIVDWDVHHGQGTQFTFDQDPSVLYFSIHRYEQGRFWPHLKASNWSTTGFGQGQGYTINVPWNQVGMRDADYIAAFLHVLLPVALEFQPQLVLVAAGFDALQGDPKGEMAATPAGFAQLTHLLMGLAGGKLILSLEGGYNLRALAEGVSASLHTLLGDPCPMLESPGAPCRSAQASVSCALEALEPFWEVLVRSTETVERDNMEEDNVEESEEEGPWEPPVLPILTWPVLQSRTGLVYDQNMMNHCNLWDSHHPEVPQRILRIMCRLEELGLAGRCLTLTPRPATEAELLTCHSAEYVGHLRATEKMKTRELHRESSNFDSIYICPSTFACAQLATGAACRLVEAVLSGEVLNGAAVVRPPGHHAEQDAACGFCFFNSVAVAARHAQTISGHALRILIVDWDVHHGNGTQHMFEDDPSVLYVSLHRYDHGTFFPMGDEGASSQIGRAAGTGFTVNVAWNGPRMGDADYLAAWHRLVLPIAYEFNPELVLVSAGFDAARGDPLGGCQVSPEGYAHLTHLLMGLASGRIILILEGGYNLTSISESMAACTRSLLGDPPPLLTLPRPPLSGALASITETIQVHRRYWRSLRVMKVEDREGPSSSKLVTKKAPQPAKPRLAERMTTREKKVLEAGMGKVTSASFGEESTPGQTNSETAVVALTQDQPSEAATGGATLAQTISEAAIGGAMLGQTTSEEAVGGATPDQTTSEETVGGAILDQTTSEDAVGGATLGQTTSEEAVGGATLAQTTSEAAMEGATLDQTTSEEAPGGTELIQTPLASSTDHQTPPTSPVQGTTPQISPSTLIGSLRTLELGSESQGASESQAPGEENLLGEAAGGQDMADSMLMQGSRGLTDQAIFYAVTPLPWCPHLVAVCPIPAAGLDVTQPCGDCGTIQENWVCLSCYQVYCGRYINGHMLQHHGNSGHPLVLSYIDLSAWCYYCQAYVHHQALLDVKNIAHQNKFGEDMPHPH
- PROCEDURE SUMMARY: Fluorometric HDAC activity assay (Fluor de Lys Green), human full-length HDAC6
- Assay type: biochemical
- TEST CONDITIONS: human full-length HDAC6, 25 °C, 3 µM Fluor de Lys Green; read-out: HDACs IC50, HDAC6
pIC50: −log10 of the molar value.
Below is a list of entries, each paired with its recorded pIC50 value.
REPORTED ENDPOINT: pIC50

{"MOLECULE": "CC(C)(C)c1cn(Cc2ccc(C(=O)NN)s2)nn1 [ITF7739]", "SYSTEM TESTED": "human HDAC6 (Homo sapiens, UniProt Q9UBN7)", "RESULT COMPARATOR": "=", "RESULT VALUE": 5.29}
{"MOLECULE": "CC(C)(C)c1cn(Cc2ccc(C(=O)NNC(=O)C(F)F)s2)nn1 [ITF7738]", "SYSTEM TESTED": "human HDAC6 (Homo sapiens, UniProt Q9UBN7)", "RESULT COMPARATOR": "<", "RESULT VALUE": 4.00}

----------
- SYSTEM TESTED: second catalytic domain of zebrafish HDAC6 (zHDAC6-CD2) (Danio rerio)
- Construct: 8xHis-MBP (TEV-cleavable) (N, cleaved yes)
- Sequence (F8W4B7 440-798): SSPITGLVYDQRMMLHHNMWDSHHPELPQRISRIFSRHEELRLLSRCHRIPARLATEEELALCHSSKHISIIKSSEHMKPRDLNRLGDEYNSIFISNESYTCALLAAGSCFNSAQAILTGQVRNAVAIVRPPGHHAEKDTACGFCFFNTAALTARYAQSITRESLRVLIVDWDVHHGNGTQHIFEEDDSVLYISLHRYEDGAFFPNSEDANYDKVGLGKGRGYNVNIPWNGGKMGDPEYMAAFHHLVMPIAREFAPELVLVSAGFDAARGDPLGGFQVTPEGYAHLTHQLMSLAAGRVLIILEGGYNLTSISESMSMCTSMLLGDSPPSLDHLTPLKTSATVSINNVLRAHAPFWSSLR
- PROCEDURE SUMMARY: Fluorometric HDAC activity assay (Fluor de Lys Green), zHDAC6-CD2
- TEST CONDITIONS: zHDAC6-CD2; fit of kobs to Eq. 2, induced-fit model; read-out: Ki (dissociation constant of the initial EI complex)
REPORTED ENDPOINT: Ki

{"COMPOUND": "CC(C)(C)c1cn(Cc2ccc(-c3nnc(C(F)F)o3)s2)nn1 [ITF7209]", "SYSTEM TESTED": "second catalytic domain of zebrafish HDAC6 (zHDAC6-CD2) (Danio rerio)", "RESULT VALUE": "980 nM"}
